Each recorded value in this set is attributed to patent US5459152A.

biological target: PAF receptor (Oryctolagus cuniculus, UniProt G1TEI7); construct: platelet membranes where prepared by centrifugation and washing; tissue Pel-Freez (Rogers, AR) (whole rabbit blood); host or cells: rabbit platelet membranes; test: PAF receptor binding assay ([3H]C18-PAF, rabbit platelet membranes); conditions: read-out: PAF Receptor Binding Activity K1
Sequence (G1TEI7 1-342): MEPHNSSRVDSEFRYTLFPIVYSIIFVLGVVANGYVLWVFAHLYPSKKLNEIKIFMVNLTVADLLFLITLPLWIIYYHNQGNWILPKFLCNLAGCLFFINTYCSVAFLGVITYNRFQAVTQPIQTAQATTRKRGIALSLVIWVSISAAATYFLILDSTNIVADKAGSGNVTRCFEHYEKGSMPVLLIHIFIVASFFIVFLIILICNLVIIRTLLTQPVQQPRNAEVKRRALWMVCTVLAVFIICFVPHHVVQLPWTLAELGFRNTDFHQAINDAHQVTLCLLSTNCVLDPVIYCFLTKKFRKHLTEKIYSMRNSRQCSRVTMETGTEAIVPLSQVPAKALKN
Where a name gives a salt, the structure may show the parent alone.
Readout Type: pKi
Units for pKi: none; it is -log10 of a concentration expressed in mol/L.

A selection of reference data follows.
{"Compound": "CN(C)C(=O)n1cc(C(=O)c2ccn3c2CSC3c2ccc[n+]([O-])c2)c2ccc(-c3ccccc3)cc21 (stereo not drawn) [Example 34]", "pKi": 7.85}
{"Compound": "CN(CO)C(=O)Cn1cc(C(=O)c2ccn3c2CSC3c2cccnc2)c2ccc(-c3ccc(F)cc3)cc21 (stereo not drawn)", "pKi": 9.10}
{"Compound": "CCS(=O)(=O)n1cc(C(=O)c2ccn3c2CSC3c2cccnc2)c2ccc(-c3ccc(F)cc3)cc21 (stereo not drawn)", "pKi": 6.61}
{"Compound": "O=C(c1ccn2c1COC2c1cccnc1)c1c[nH]c2ccccc12 (stereo not drawn)", "pKi": 5.25}
{"Compound": "O=C(c1ccn2c1CSC2c1cccnc1)c1cn(C(=O)N2CCOCC2)c2ccccc12 (stereo not drawn)", "pKi": 6.65}

Consider the compound CNC(=O)n1cc(C(=O)c2ccn3c2C(C)(C)SC3c2cccnc2)c2ccc(-c3ccc(OC)cc3)cc21 (stereo not drawn) . State its measured pKi.
6.82

Tell me measured pKi for Cn1cc(C(=O)c2ccn3c2CSC3c2ccc[n+]([O-])c2)c2ccc(OCc3ccccc3)cc21 (stereo not drawn) please.
7.31

Retrieve pKi measured for CN(C)C(=O)n1cc(C(=NNC(N)=O)c2ccn3c2CSC3c2cccnc2)c2ccc(-c3ccc(F)cc3)cc21 (stereo not drawn) and print it.
8.10

Report pKi, nothing else, for this compound: CNC(=O)n1cc(C(=O)c2ccn3c2CSC3c2cccnc2)c2ccc(-c3ccccc3)cc21 (stereo not drawn)
6.87

Name the recorded pKi of the item CN(C)C(=O)n1cc(C(=O)c2ccn3c2CSC3c2cccnc2)c2ccc(-c3ccccc3)cc21 (stereo not drawn) [Example 52, Hydrochloride] in your answer.
7.80

Report pKi for CN(C)C(=O)n1cc(C(=O)c2ccn3c2CSC3c2cccnc2)c2cc(OCc3ccccc3)ccc21 (stereo not drawn)
6.92
